Reference for the values: paper PMC9919490

Test system: HCT^−/− cells
test_description: MTT cytotoxicity assay, HCT^−/− (p53 neg)
Assay type: cell-based
measurement_conditions: 48 h
Procedure: The synthesized compounds were tested for their ability to block the proliferation of the selected model cell lines: LNCaP (p53+), PC3 (p53-), HCT^wt (p53+), and HCT^−/− (p53-) cells. […] First, 4000 cells per well were plated out in 140 µL of DMEM (with 10% FBS) in 96-well plates and incubated in 5% CO2 for 24 h at 37 °C without treatment. […] Cell survival rates were determined by the comparison of optical density with the corresponding untreated control cell culture. […]
pIC50: −log10 of the molar value.
parameter_measured: pIC50

{"columns": ["compound", "parameter_measured", "measured"],
 "data": [
  ["COc1ccc([C@H]2CN(C)[C@@]3(C(=O)Nc4ccc(Cl)cc43)[C@@]23NC(=S)N(c2ccc(O)cc2)C3=O)cc1OC (racemic)", "pIC50", "< 4.00"],
  ["CCOc1ccc(N2C(=O)C3(NC2=S)C(c2ccc(Cl)cc2)CN(C)C32C(=O)Nc3ccc(Br)cc32)cc1 (stereo not drawn)", "pIC50", 4.15],
  ["CC(c1ccccc1)N1C(=O)C2(NC1=S)C(c1cccc(Cl)c1)CN(C)C21C(=O)Nc2ccc(Br)cc21 (mixture of isomers)", "pIC50", "< 4.00"],
  ["CC(c1ccccc1)N1C(=O)C2(NC1=S)C(c1ccccc1Cl)CN(C)C21C(=O)Nc2ccc(Cl)cc21 (mixture of isomers)", "pIC50", "< 4.00"],
  ["CN1C[C@H](c2ccccc2Cl)[C@]2(NC(=S)N(c3ccc(O)cc3)C2=O)[C@]12C(=O)Nc1ccc(Cl)cc12 (racemic)", "pIC50", "< 4.00"],
  ["CC(c1ccccc1)N1C(=O)C2(NC1=S)C(c1ccc(Cl)cc1)CN(C)C21C(=O)Nc2ccc(Br)cc21 (mixture of isomers)", "pIC50", "< 4.00"]
]}
